measured-on: human TLR8 (Homo sapiens)
Construct: host or cells: HEK-Blue cells
test-protocol: TLR8 inhibition reporter assay (HEK-Blue cells, SEAP reporter, R848 stimulation)
Assay type: cell-based
condition-set: HEK-Blue cells overexpressing human TLR8, SEAP reporter, R848 15.9 μM; read-out: TLR8 IC50
Please assign false (0) whenever IC50 is at or above 30 nM, and true (1) whenever it is below.

- compound: "CC(C)c1c(-c2cn(C)c3ncccc23)[nH]c2sc(C3CCC(NC4COC4)CC3)nc12 (single isomer, unassigned) [Example 178]"
  assigned-label: "true (1)"
- compound: "Cc1c(-c2[nH]c3sc(C4CCC(NC5COC5)CC4)nc3c2C(C)C)cn(C)c(=O)c1C (single isomer, unassigned) [Example 241]"
  assigned-label: "true (1)"
- compound: "Cc1c(-c2[nH]c3sc(C(=O)NCCN4CCCC4)nc3c2C(C)C)cn2ncnc2c1C"
  assigned-label: "true (1)"
- compound: "Cc1c(-c2[nH]c3sc(C(=O)NC4CCC(N(C)C)CC4)nc3c2C(C)C)cn2ncnc2c1C (single isomer, unassigned) [Example 369]"
  assigned-label: "false (0)"
- compound: "CCN(C)C1CCN(c2nc3c(C(C)C)c(-c4cn5ncnc5c(C)c4C)[nH]c3s2)CC1"
  assigned-label: "true (1)"
- compound: "Cc1c(-c2[nH]c3sc(CNCC(N)=O)nc3c2C(C)C)cn2ncnc2c1C"
  assigned-label: "false (0)"
- compound: "COc1cc(-c2[nH]c3sc(C4CCC(N)CC4)nc3c2C(C)C)cn2ncnc12 (single isomer, unassigned) [Example 92]"
  assigned-label: "true (1)"
- compound: "Cc1cc(-c2[nH]c3sc(C4CCN(C5CCOCC5)CC4)nc3c2C(C)C)cc(C)n1"
  assigned-label: "false (0)"
- compound: "COc1cc(-c2[nH]c3sc(C(=O)NCCN(C)C)nc3c2C(C)C)cn2ncnc12"
  assigned-label: "false (0)"
- compound: "Cc1c(-c2[nH]c3sc(CNCC4(S(C)(=O)=O)CC4)nc3c2C(C)C)cn2ncnc2c1C"
  assigned-label: "false (0)"
- compound: "Cc1c(-c2[nH]c3sc(C4CCC(NC5CCOCC5)CC4)nc3c2C(C)C)cn(C)c(=O)c1C (single isomer, unassigned) [Example 250]"
  assigned-label: "false (0)"
- compound: "Cc1cc(-c2[nH]c3sc(C4CCC(NCC(C)(C)O)CC4)nc3c2C(C)C)cn2ncnc12 (single isomer, unassigned) [Example 141]"
  assigned-label: "true (1)"
- compound: "CC(C)c1c(-c2cn(C)c3ncccc23)[nH]c2sc(C3CCN(CC(=O)N(C)C)CC3)nc12"
  assigned-label: "true (1)"
- compound: "Cc1c(-c2[nH]c3sc(C4CCC(N5CCC6(CC5)COC6)CC4)nc3c2C(C)C)cn2ncnc2c1C (single isomer, unassigned) [Example 237]"
  assigned-label: "true (1)"
- compound: "Cc1c(-c2[nH]c3sc(C(=O)NCCN(C)C)nc3c2C(C)C)cn2ncnc2c1C"
  assigned-label: "true (1)"
- compound: "Cc1c(-c2[nH]c3sc(C4CCC(N5CC(O)(C(F)(F)F)C5)CC4)nc3c2C(C)C)cn(C)c(=O)c1C (single isomer, unassigned) [Example 268]"
  assigned-label: "false (0)"
- compound: "CC(C)c1c(-c2cn(C)c3ncccc23)[nH]c2sc(C3CCC(N4CC5(COC5)C4)CC3)nc12 (single isomer, unassigned) [Example 181]"
  assigned-label: "false (0)"
- compound: "CNC(=O)CNC1CCC(c2nc3c(C(C)C)c(-c4cn5ncnc5c(C)c4C)[nH]c3s2)CC1 (single isomer, unassigned) [Example 208]"
  assigned-label: "true (1)"
- compound: "Cc1c(-c2[nH]c3sc(N4CC5(CN(CC(C)C)C5)C4)nc3c2C(C)C)cn2ncnc2c1C"
  assigned-label: "true (1)"
- compound: "Cc1c(-c2[nH]c3sc(C4CCN(CCS(C)(=O)=O)CC4)nc3c2C(C)C)cn2ncnc2c1C"
  assigned-label: "true (1)"
- compound: "COc1cc(-c2[nH]c3sc(C4CCC(NCC(C)(C)OC)CC4)nc3c2C(C)C)cn2ncnc12 (single isomer, unassigned) [Example 87]"
  assigned-label: "true (1)"
- compound: "Cc1c(-c2[nH]c3sc(N4C[C@@H](C)N(CC5CC5)C[C@@H]4C)nc3c2C(C)C)cn2ncnc2c1C"
  assigned-label: "true (1)"
- compound: "COc1cc(-c2[nH]c3sc(C4CCC(NC5COC5)CC4)nc3c2C)cn2ncnc12 (single isomer, unassigned)"
  assigned-label: "true (1)"
- compound: "Cc1c(-c2[nH]c3sc(N4CCN(C(=O)CN(C)C)CC4)nc3c2C(C)C)cn2ncnc2c1C"
  assigned-label: "true (1)"
- compound: "Cc1c(-c2[nH]c3sc(C4CCC(N5CC6(CCOCC6)C5)CC4)nc3c2C(C)C)cn2ncnc2c1C (single isomer, unassigned) [Example 240]"
  assigned-label: "true (1)"
- compound: "COc1cc(-c2[nH]c3sc(C4CCC(N5CC6(CCOCC6)C5)CC4)nc3c2C(C)C)cn2ncnc12 (single isomer, unassigned) [Example 110]"
  assigned-label: "true (1)"

* * *

log10(IC50) listing for selected compounds.
measured-on: human TLR8 (Homo sapiens, UniProt Q9NR97)
Construct: host or cells: HEK-Blue cells
Sequence (Q9NR97 27-1041): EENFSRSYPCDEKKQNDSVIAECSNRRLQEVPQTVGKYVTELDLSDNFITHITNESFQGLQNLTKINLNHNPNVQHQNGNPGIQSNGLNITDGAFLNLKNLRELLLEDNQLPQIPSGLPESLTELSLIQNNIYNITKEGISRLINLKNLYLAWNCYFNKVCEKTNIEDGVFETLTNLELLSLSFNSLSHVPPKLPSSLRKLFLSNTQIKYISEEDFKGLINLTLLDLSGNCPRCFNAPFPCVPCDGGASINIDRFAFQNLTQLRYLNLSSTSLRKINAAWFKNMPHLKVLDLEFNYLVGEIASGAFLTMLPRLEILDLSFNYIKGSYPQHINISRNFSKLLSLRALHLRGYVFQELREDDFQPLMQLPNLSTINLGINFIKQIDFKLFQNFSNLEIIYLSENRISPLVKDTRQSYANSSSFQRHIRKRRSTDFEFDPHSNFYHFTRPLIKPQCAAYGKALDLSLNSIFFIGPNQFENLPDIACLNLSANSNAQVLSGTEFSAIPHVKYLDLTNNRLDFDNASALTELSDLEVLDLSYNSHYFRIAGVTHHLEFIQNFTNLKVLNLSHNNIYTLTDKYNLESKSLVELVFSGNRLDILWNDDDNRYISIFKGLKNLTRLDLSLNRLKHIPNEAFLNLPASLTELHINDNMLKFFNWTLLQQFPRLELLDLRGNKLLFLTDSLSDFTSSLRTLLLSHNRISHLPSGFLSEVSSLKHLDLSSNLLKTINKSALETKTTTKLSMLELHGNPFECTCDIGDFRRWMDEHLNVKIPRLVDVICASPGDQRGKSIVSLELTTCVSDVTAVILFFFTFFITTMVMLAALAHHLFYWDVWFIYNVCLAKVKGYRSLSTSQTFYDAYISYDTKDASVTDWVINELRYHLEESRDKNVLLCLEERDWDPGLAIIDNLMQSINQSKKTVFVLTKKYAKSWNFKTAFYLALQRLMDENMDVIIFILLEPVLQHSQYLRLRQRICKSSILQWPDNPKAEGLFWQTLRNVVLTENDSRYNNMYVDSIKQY
test-protocol: TLR8 inhibition reporter assay (HEK-Blue cells, SEAP reporter, R848 stimulation)
Format: cell-based
condition-set: HEK-Blue cells overexpressing human TLR8, SEAP reporter, R848 15.9 μM; read-out: TLR8 IC50
measure-name: log10(IC50) (log10 of the value in nM)

- compound: "CCN(C)CC(=O)N[C@H]1CC[C@H](c2nc3c(C(C)C)c(-c4cc(OC)c5ncnn5c4)[nH]c3s2)CC1 [Example 128]"
  log10(IC50): 0.92
- compound: "Cc1c(-c2[nH]c3sc(N4CCC(NC5CCC5)CC4)nc3c2C(C)C)cn2ncnc2c1C [Example 293]"
  log10(IC50): -0.42
- compound: "Cc1c(-c2[nH]c3sc(N4CCC(N(C)C(C)C)CC4)nc3c2C(C)C)cn2ncnc2c1C [Example 292]"
  log10(IC50): -0.34
- compound: "CNC(=O)CN1CCN(c2nc3c(C(C)C)c(-c4cn5ncnc5c(C)c4C)[nH]c3s2)[C@H](C)C1 [Example 315]"
  log10(IC50): 1.31
- compound: "CC(C)c1c(-c2cn(C)c3ncccc23)[nH]c2sc(C3CCC(NCC4(C)COC4)CC3)nc12 (single isomer, unassigned) [Example 172]"
  log10(IC50): 0.09
- compound: "Cc1c(-c2[nH]c3sc(N4CCN(C(C)C)CC4)nc3c2C(C)C)cn2ncnc2c1C [Example 288]"
  log10(IC50): -0.28
- compound: "CC(C)c1c(-c2ccc(C#N)c3ncccc23)[nH]c2sc(C3CCN(C4COC4)CC3)nc12 [Example 37]"
  log10(IC50): 1.43
- compound: "CCc1c(-c2cc(OC)c3ncnn3c2)[nH]c2sc(C3CCC(N4CC5(COC5)C4)CC3)nc12 (single isomer, unassigned) [Example 269]"
  log10(IC50): 0.41
- compound: "Cc1c(-c2[nH]c3sc(N4C[C@@H](C)N(CC(N)=O)C[C@@H]4C)nc3c2C(C)C)cn2ncnc2c1C [Example 338]"
  log10(IC50): 1.49
- compound: "Cc1cc(-c2[nH]c3sc(C4CCN(C5CCOCC5)CC4)nc3c2C(C)C)cn2ncnc12 [Example 22]"
  log10(IC50): -0.05
- compound: "COC(C)(C)CNC1CCC(c2nc3c(C(C)C)c(-c4cn5ncnc5c(C)c4C)[nH]c3s2)CC1 (single isomer, unassigned) [Example 187]"
  log10(IC50): 0.63
- compound: "CCC(CC)CN1CCC(c2nc3c(C(C)C)c(-c4cn5ncnc5c(C)c4C)[nH]c3s2)CC1 [Example 54]"
  log10(IC50): 0.57
- compound: "Cc1cc(-c2[nH]c3sc(C4CCC(N5CC6(COC6)C5)CC4)nc3c2C(C)C)cn2ncnc12 (single isomer, unassigned) [Example 137]"
  log10(IC50): 1.61
- compound: "Cc1c(-c2[nH]c3sc(N4CCN(C5CCN(C(C)C)CC5)C[C@H]4C)nc3c2C(C)C)cn2ncnc2c1C [Example 324]"
  log10(IC50): 0.35
- compound: "CC(C)c1c(-c2cn(C)c3ncccc23)[nH]c2sc(C3CCN(C4COC4)CC3)nc12 [Example 34]"
  log10(IC50): 0.69
- compound: "Cc1cc(-c2[nH]c3sc(C4CCN(C(C)C)CC4)nc3c2C(C)C)cn2ncnc12 [Example 21]"
  log10(IC50): 1.59
- compound: "Cc1c(-c2[nH]c3sc(C(=O)N4CCCC4)nc3c2C(C)C)cn2ncnc2c1C [Example 377]"
  log10(IC50): 1.26
- compound: "CCN(C)C1CCC(c2nc3c(C(C)C)c(-c4cn(C)c(=O)c(C)c4C)[nH]c3s2)CC1 (single isomer, unassigned) [Example 248]"
  log10(IC50): 1.08
- compound: "Cc1c(-c2[nH]c3sc(N4CCC(NC(C)C)CC4)nc3c2C(C)C)cn2ncnc2c1C [Example 297]"
  log10(IC50): -0.57
- compound: "COc1cc(-c2[nH]c3sc(C4CCC(N5CC6(C5)CS(=O)(=O)C6)CC4)nc3c2C(C)C)cn2ncnc12 (single isomer, unassigned) [Example 96]"
  log10(IC50): -0.01
- compound: "Cc1cc(-c2[nH]c3sc(C(=O)NC4COC4)nc3c2C(C)C)cn2ncnc12 [Example 397]"
  log10(IC50): 2.67
- compound: "CNC(=O)CN1CCC(c2nc3c(C(C)C)c(-c4cc(OC)c5ncnn5c4)[nH]c3s2)CC1 [Example 8]"
  log10(IC50): 0.73
- compound: "CNC(=O)CNC1CCC(c2nc3c(C(C)C)c(-c4cn5ncnc5c(C)c4C)[nH]c3s2)CC1 (single isomer, unassigned) [Example 209]"
  log10(IC50): -0.85
- compound: "Cc1c(-c2[nH]c3sc(N4CCC(NC5(C)COC5)CC4)nc3c2C(C)C)cn2ncnc2c1C [Example 290]"
  log10(IC50): 0.04
- compound: "Cc1c(-c2[nH]c3sc(C4CCC(N5CCNC(=O)C5)CC4)nc3c2C(C)C)cn(C)c(=O)c1C (single isomer, unassigned) [Example 259]"
  log10(IC50): 1.14
- compound: "Cc1c(-c2[nH]c3sc(N4C[C@@H](C)N(CC(C)(C)O)C[C@@H]4C)nc3c2C(C)C)cn2ncnc2c1C [Example 339]"
  log10(IC50): 0.59
- compound: "CC(C)c1c(-c2cn(C)c3ncccc23)[nH]c2sc(C3CCN(C4CCOCC4)CC3)nc12 [Example 35]"
  log10(IC50): -0.10
- compound: "Cc1c(-c2[nH]c3sc(N4CC5(CN(CC6CCOCC6)C5)C4)nc3c2C(C)C)cn(C)c(=O)c1C [Example 307]"
  log10(IC50): 0.97
